# System: MYC
# assay.details: qPCR gene expression in AR-v7+ prostate cancer cells, MYC
# Format: cell-based
# measurement.setup: 24 h
endpoint.name: IC50

Completed entries (count: 2):
>>> result("COC(=O)N1c2ccc3c(nc([C@H](O)c4cc(F)ccc4OC(F)F)n3[C@@H]3CCC[C@@H](C(=O)O)C3)c2CC[C@@H]1C")
"50 to 100 nM"
>>> result("COC(=O)N1c2ccc3c(nc([C@H](O)c4cc(F)ccc4OC)n3[C@@H]3CCC[C@@H](C(=O)O)C3)c2CC[C@@H]1C")
"> 100 nM"

Which IC50 value belongs to COC(=O)N1c2ccc3c(nc([C@H](O)c4ccccc4)n3[C@@H]3CCC[C@@H](C(=O)O)C3)c2CC[C@@H]1C ? > 100 nM

====

IC50 for assorted compounds
# Tested on: CAL148
# assay.details: 10-day CellTiter-Glo antiproliferative assay, CAL148
# Type: cell-based
# measurement.setup: Homo sapiens, CAL-148, 240 h, 10-day exposure, AR Low, ER −, Her2 −

Completed entries (count: 2):
>>> result("COC(=O)N1c2ccc3c(nc([C@H](O)c4ccccc4)n3[C@@H]3CCC[C@@H](C(=O)O)C3)c2CC[C@@H]1C")
"> 1 µM"
>>> result("COC(=O)N1c2ccc3c(nc(Cc4ccccc4)n3[C@@H]3CCC[C@@H](C(=O)O)C3)c2CC[C@@H]1C")
"> 1 µM"

Then this compound:
Form entry - test system: CAL148; read-out: IC50; compound: COC(=O)N1c2ccc3c(nc([C@H](O)c4cc(F)ccc4OC)n3[C@@H]3CCC[C@@H](C(=O)O)C3)c2CC[C@@H]1C > 1 µM

====

# Test system: MFM223
# assay.details: 10-day CellTiter-Glo antiproliferative assay, MFM223
# Assay type: cell-based
# measurement.setup: Homo sapiens, MFM-223, 240 h, 10-day exposure, AR Low, ER −, Her2 −
IC50 for assorted compounds

Form entry - test system: MFM223; read-out: IC50; compound: COC(=O)N1c2ccc3c(nc([C@H](O)c4cc(F)ccc4OC)n3[C@@H]3CCC[C@@H](C(=O)O)C3)c2CC[C@@H]1C > 1 µM

Form entry - test system: MFM223; read-out: IC50; compound: COC(=O)N1c2ccc3c(nc([C@H](O)c4ccccc4)n3[C@@H]3CCC[C@@H](C(=O)O)C3)c2CC[C@@H]1C > 1 µM

Form entry - test system: MFM223; read-out: IC50; compound: COC(=O)N1c2ccc3c(nc(Cc4ccccc4)n3[C@@H]3CCC[C@@H](C(=O)O)C3)c2CC[C@@H]1C > 1 µM

====

# System: TMPRSS2
# assay.details: qPCR gene expression in AR-v7+ prostate cancer cells, TMPRSS2
# Type: cell-based
# measurement.setup: 24 h
# Description: AR-v7+ prostate cancer cells were exposed to compounds 1, 2, 3, or 4 for 24 h. RNA was extracted and gene expression was measured by qPCR using Taqman® primer-probes. GAPDH was used as a housekeeping gene.
pIC50: −log10 of the molar value.
endpoint.name: pIC50

>>> result("COC(=O)N1c2ccc3c(nc([C@H](O)c4cc(F)ccc4OC)n3[C@@H]3CCC[C@@H](C(=O)O)C3)c2CC[C@@H]1C")
"> 8.00"

Which pIC50 value belongs to COC(=O)N1c2ccc3c(nc([C@H](O)c4ccccc4)n3[C@@H]3CCC[C@@H](C(=O)O)C3)c2CC[C@@H]1C ? 7.00 to 7.30

Which pIC50 value belongs to COC(=O)N1c2ccc3c(nc([C@H](O)c4cc(F)ccc4OC(F)F)n3[C@@H]3CCC[C@@H](C(=O)O)C3)c2CC[C@@H]1C ? 7.30 to 8.00

Which pIC50 value belongs to COC(=O)N1c2ccc3c(nc(Cc4ccccc4)n3[C@@H]3CCC[C@@H](C(=O)O)C3)c2CC[C@@H]1C ? 7.30 to 8.00

====

# Tested on: FKBP5
# assay.details: qPCR gene expression in VCaP, FKBP5
# Type: cell-based
# measurement.setup: Homo sapiens, 24 h
endpoint.name: IC50

Which IC50 value belongs to COC(=O)N1c2ccc3c(nc([C@H](O)c4cc(F)ccc4OC)n3[C@@H]3CCC[C@@H](C(=O)O)C3)c2CC[C@@H]1C ? > 0.1 µM

====

# system.under.test: TAF1-2 (Homo sapiens (Human), UniProt P21675)
# Sequence (P21675 1519-1628): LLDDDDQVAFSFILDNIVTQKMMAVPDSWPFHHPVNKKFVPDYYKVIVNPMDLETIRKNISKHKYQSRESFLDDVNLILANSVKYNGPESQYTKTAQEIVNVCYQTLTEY
# assay.details: AlphaScreen bromodomain panel, TAF1-2
# Type: binding
endpoint.name: IC50

Form entry - test system: TAF1-2 (Homo sapiens (Human), UniProt P21675); read-out: IC50; compound: COC(=O)N1c2ccc3c(nc(Cc4ccccc4)n3[C@@H]3CCC[C@@H](C(=O)O)C3)c2CC[C@@H]1C > 5 µM

====

# Tested on: SORD
# assay.details: qPCR gene expression in 22Rv1, SORD
# Format: cell-based
# measurement.setup: Homo sapiens, 22Rv1, 24 h
endpoint.name: IC50

Form entry - test system: SORD; read-out: IC50; compound: COC(=O)N1c2ccc3c(nc([C@H](O)c4cc(F)ccc4OC)n3[C@@H]3CCC[C@@H](C(=O)O)C3)c2CC[C@@H]1C [Compound 1] > 0.1 µM

====

# Tested on: AR target genes
# assay.details: Reduction of AR target genes in VCaP cells
# Format: cell-based
# measurement.setup: Homo sapiens, 24 hr exposure
endpoint.name: IC50

Form entry - test system: AR target genes; read-out: IC50; compound: COC(=O)N1c2ccc3c(nc([C@H](O)c4cc(F)ccc4OC)n3[C@@H]3CCC[C@@H](C(=O)O)C3)c2CC[C@@H]1C [Compound 1] < 500 nM

====

# System: BPH1
# assay.details: 10-day prostate cell proliferation assay, BPH1
# Assay type: cell-based
# measurement.setup: Homo sapiens, BPH-1, 240 h; 10 days exposure; AR negative
endpoint.name: IC50

Which IC50 value belongs to COC(=O)N1c2ccc3c(nc(Cc4ccccc4)n3[C@@H]3CCC[C@@H](C(=O)O)C3)c2CC[C@@H]1C ? > 1000 nM

// provenance: patent US20240016795A1
